FYI, the data here is from ChEMBL document CHEMBL1151757.

Assay: Ratio of drug uptake in frontal lobe to cerebellum in anesthetized cynomolgus monkey after 75 mins postinjection
Type: ADME, organism-based, Macaca fascicularis
Settings: in vivo, 1.25 h
assay-metric: Ratio
Kindly provide the number alone.

Observe how each entry below is paired with its result.
[
  {
    "compound": "O=C(OCC[18F])C1C2CCC(CC1c1cccc(/C=C\\Br)c1)N2 (stereo not given)",
    "assay-metric": "Ratio",
    "val": 0.9
  },
  {
    "compound": "O=C(OCC[18F])C1C2CCC(CC1c1ccc(/C=C\\I)cc1)N2 (stereo not given)",
    "assay-metric": "Ratio",
    "val": 0.9
  },
  {
    "compound": "O=C(OCC[18F])C1C2CCC(CC1c1cccc(/C=C\\I)c1)N2 (stereo not given)",
    "assay-metric": "Ratio",
    "val": 0.9
  }
]

[in] # Ratio lookup, item O=C(OCCC[18F])C1C2CCC(CC1c1cccc(/C=C\I)c1)N2 (stereo not given)
[out] 0.7

[in] // query: O=C(OCCC[18F])C1C2CCC(CC1c1cccc(/C=C\Br)c1)N2 (stereo not given)
[out] 0.9

====

Catalogue of Drug uptake readings, one per entry.
System: Pons
Test: Drug uptake in anesthetized cynomolgus monkey brain pons after 165 mins postinjection
Assay type: ADME, organism-based, Macaca fascicularis
Settings: in vivo, 2.75 h
Reply with just the number.

[
  {
    "molecule": "O=C(OCCC[18F])C1C2CCC(CC1c1cccc(/C=C\\Br)c1)N2 (stereo not given)",
    "val": 3.84
  },
  {
    "molecule": "O=C(OCC[18F])C1C2CCC(CC1c1ccc(/C=C\\I)cc1)N2 (stereo not given)",
    "val": 3.54
  },
  {
    "molecule": "O=C(OCC[18F])C1C2CCC(CC1c1cccc(/C=C\\I)c1)N2 (stereo not given)",
    "val": 2.46
  },
  {
    "molecule": "O=C(OCC[18F])C1C2CCC(CC1c1cccc(/C=C\\Br)c1)N2 (stereo not given)",
    "val": 3.9
  }
]

In the following, a different molecule is considered.
[in] Need Drug uptake, item O=C(OCCC[18F])C1C2CCC(CC1c1cccc(/C=C\I)c1)N2 (stereo not given)
[out] 3.73

====

Tested on: Putamen
Assay: Drug uptake in anesthetized cynomolgus monkey brain putamen after 4.5 mins postinjection
Format: ADME, organism-based, Macaca fascicularis
Parameters: unit not given here
Settings: in vivo, 0.075 h
Record true (1) whenever Drug uptake is at 2 or higher; record false (0) when lower.

Sample answers from the record:
[
  {
    "molecule": "O=C(OCC[18F])C1C2CCC(CC1c1cccc(/C=C\\I)c1)N2 (stereo not given)",
    "classification": "false (0)"
  },
  {
    "molecule": "O=C(OCC[18F])C1C2CCC(CC1c1cccc(/C=C\\Br)c1)N2 (stereo not given)",
    "classification": "false (0)"
  },
  {
    "molecule": "O=C(OCCC[18F])C1C2CCC(CC1c1cccc(/C=C\\Br)c1)N2 (stereo not given)",
    "classification": "true (1)"
  },
  {
    "molecule": "O=C(OCC[18F])C1C2CCC(CC1c1ccc(/C=C\\I)cc1)N2 (stereo not given)",
    "classification": "false (0)"
  }
]

[in] Would you say O=C(OCCC[18F])C1C2CCC(CC1c1cccc(/C=C\I)c1)N2 (stereo not given) shows Drug uptake at minimum 2?
[out] true (1)

====

Test system: Pons
Experiment: Drug uptake in anesthetized cynomolgus monkey brain pons after 155 mins postinjection
Type: ADME, organism-based, Macaca fascicularis
Conditions: in vivo
Overview of recorded Drug uptake for various compounds

[
  {
    "compound": "O=C(OCCC[18F])C1C2CCC(CC1c1cccc(/C=C\\I)c1)N2 (stereo not given)",
    "assay-metric": "Drug uptake",
    "val": 3.52
  },
  {
    "compound": "O=C(OCC[18F])C1C2CCC(CC1c1cccc(/C=C\\I)c1)N2 (stereo not given)",
    "assay-metric": "Drug uptake",
    "val": 2.5
  },
  {
    "compound": "O=C(OCCC[18F])C1C2CCC(CC1c1cccc(/C=C\\Br)c1)N2 (stereo not given)",
    "assay-metric": "Drug uptake",
    "val": 4.03
  },
  {
    "compound": "O=C(OCC[18F])C1C2CCC(CC1c1cccc(/C=C\\Br)c1)N2 (stereo not given)",
    "assay-metric": "Drug uptake",
    "val": 3.92
  }
]

Note: attention shifts to another entry.
[in] Returns the measured Drug uptake for the input compound. Input: O=C(OCC[18F])C1C2CCC(CC1c1ccc(/C=C\I)cc1)N2 (stereo not given)
[out] 3.43

====

Tested on: Putamen
Assay: Drug uptake in anesthetized cynomolgus monkey brain putamen after 225 mins postinjection
Assay type: ADME, organism-based, Macaca fascicularis
Conditions: in vivo, 3.75 h
# label = Criterion met if Drug uptake >= 3 else Criterion not met

[in] Hello, I need to know if O=C(OCC[18F])C1C2CCC(CC1c1ccc(/C=C\I)cc1)N2 (stereo not given) has measured Drug uptake not below 3. Thanks!
[out] Criterion met

[in] One more compound: O=C(OCC[18F])C1C2CCC(CC1c1cccc(/C=C\I)c1)N2 (stereo not given)
[out] Criterion not met

[in] Follow-up entry: O=C(OCCC[18F])C1C2CCC(CC1c1cccc(/C=C\Br)c1)N2 (stereo not given)
[out] Criterion met

====

System: Midbrain
Test: Drug uptake in anesthetized cynomolgus monkey brain midbrain after 9.5 mins postinjection
Assay type: ADME, organism-based, Macaca fascicularis
Parameters: unit not given here
Conditions: in vivo
assay-metric: Drug uptake
# output: bare number, no unit

[
  {
    "compound": "O=C(OCC[18F])C1C2CCC(CC1c1ccc(/C=C\\I)cc1)N2 (stereo not given)",
    "target-entity": "Midbrain",
    "val": 2.2
  },
  {
    "compound": "O=C(OCC[18F])C1C2CCC(CC1c1cccc(/C=C\\I)c1)N2 (stereo not given)",
    "target-entity": "Midbrain",
    "val": 3.52
  },
  {
    "compound": "O=C(OCC[18F])C1C2CCC(CC1c1cccc(/C=C\\Br)c1)N2 (stereo not given)",
    "target-entity": "Midbrain",
    "val": 3.41
  },
  {
    "compound": "O=C(OCCC[18F])C1C2CCC(CC1c1cccc(/C=C\\I)c1)N2 (stereo not given)",
    "target-entity": "Midbrain",
    "val": 4
  }
]

[in] // lookup Drug uptake for O=C(OCCC[18F])C1C2CCC(CC1c1cccc(/C=C\Br)c1)N2 (stereo not given)
[out] 5.04

====

Property: Drug uptake; scope: individual molecules
System: Thalamus
Assay: Drug uptake in anesthetized cynomolgus monkey brain thalamus after 75 mins postinjection
Format: ADME, organism-based, Macaca fascicularis
Set-up: unit not given here
Conditions: in vivo, 1.25 h
Answer as a number with no unit attached.

[in] Test system Thalamus; read-out Drug uptake; what value for O=C(OCC[18F])C1C2CCC(CC1c1cccc(/C=C\I)c1)N2 (stereo not given) ?
[out] 4.16

[in] Follow-up item: O=C(OCCC[18F])C1C2CCC(CC1c1cccc(/C=C\I)c1)N2 (stereo not given)
[out] 4.76

[in] Also O=C(OCC[18F])C1C2CCC(CC1c1ccc(/C=C\I)cc1)N2 (stereo not given) ?
[out] 4.02

[in] Next molecule: O=C(OCC[18F])C1C2CCC(CC1c1cccc(/C=C\Br)c1)N2 (stereo not given)
[out] 4.29

[in] Also, O=C(OCCC[18F])C1C2CCC(CC1c1cccc(/C=C\Br)c1)N2 (stereo not given) please.
[out] 5.33

====

System: Medulla
Test: Drug uptake in anesthetized cynomolgus monkey brain medulla after 2.5 mins postinjection
Type: ADME, organism-based, Macaca fascicularis
Conditions: in vivo
Decision: Drug uptake beneath 0.8 gives Fulfilled; Drug uptake meeting or exceeding 0.8 gives Not fulfilled.

Recorded results for 4 molecules are shown here.
[
  {
    "molecule": "O=C(OCC[18F])C1C2CCC(CC1c1cccc(/C=C\\I)c1)N2 (stereo not given)",
    "classification": "Fulfilled"
  },
  {
    "molecule": "O=C(OCC[18F])C1C2CCC(CC1c1cccc(/C=C\\Br)c1)N2 (stereo not given)",
    "classification": "Fulfilled"
  },
  {
    "molecule": "O=C(OCCC[18F])C1C2CCC(CC1c1cccc(/C=C\\Br)c1)N2 (stereo not given)",
    "classification": "Not fulfilled"
  },
  {
    "molecule": "O=C(OCC[18F])C1C2CCC(CC1c1ccc(/C=C\\I)cc1)N2 (stereo not given)",
    "classification": "Fulfilled"
  }
]

Shift focus to the following entry.
[in] Would you kindly verify if Drug uptake of O=C(OCCC[18F])C1C2CCC(CC1c1cccc(/C=C\I)c1)N2 (stereo not given) is strictly less than 0.8?
[out] Not fulfilled
